Field: pKi. System: D(3) dopamine receptor (Homo sapiens, UniProt P35462). Provenance: assorted publications.
Sequence (P35462 whole entry): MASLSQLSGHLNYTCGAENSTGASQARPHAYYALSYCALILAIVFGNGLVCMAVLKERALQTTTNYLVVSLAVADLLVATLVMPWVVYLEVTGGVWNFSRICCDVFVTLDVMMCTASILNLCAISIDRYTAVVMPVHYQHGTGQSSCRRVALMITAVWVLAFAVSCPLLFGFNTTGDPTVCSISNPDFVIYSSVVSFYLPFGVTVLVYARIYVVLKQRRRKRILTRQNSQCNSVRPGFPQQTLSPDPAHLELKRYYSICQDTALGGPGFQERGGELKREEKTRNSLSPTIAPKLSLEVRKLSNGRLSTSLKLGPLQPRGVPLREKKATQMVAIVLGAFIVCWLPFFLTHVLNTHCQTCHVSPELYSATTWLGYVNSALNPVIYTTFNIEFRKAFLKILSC
pKi: −log10 of the molar value.
Readout kind: pKi

1) CN(C)CCN(Cc1ccc(-c2ccc(CNCCc3ccccc3)cc2)cc1)C(=O)/C=C/c1ccccc1    6.00
2) COc1ccccc1N1CCN(CCCCOc2ccc(-c3cn4cccc(C)c4n3)cc2)CC1    6.41
3) CN(C)C[C@@H]1CC2c3ccccc3Sc3ccc(F)cc3[C@H]2O1 (stereo not given in full)    8.07
4) O=C(NC/C=C/CN1CCN(c2ccccc2OCCF)CC1)c1cc2ccccc2[nH]1    8.70
5) CCS(=O)(=O)c1ccc(OC)c(-c2ccc(CN3CCc4ccccc4C3)[nH]2)c1    7.50
6) O=C(NCCCCCN1CCN(c2cccc(Cl)c2Cl)CC1)c1cccc2c1-c1ccccc1C2=O    7.55
7) Clc1ccc(N2CCCN(CCCCc3nc4ccccc4s3)CC2)cc1    6.82
8) Cn1c(SCCCN2CCC3(CC2)CCN(c2cccc(C#N)c2)CC3)nnc1-c1ccccc1    6.36
